Molecular target: PI3 Kinase alpha (p110 alpha/p85 alpha) (Homo sapiens)
Construct: purchased Invitrogen
Sequence (P42336 whole entry): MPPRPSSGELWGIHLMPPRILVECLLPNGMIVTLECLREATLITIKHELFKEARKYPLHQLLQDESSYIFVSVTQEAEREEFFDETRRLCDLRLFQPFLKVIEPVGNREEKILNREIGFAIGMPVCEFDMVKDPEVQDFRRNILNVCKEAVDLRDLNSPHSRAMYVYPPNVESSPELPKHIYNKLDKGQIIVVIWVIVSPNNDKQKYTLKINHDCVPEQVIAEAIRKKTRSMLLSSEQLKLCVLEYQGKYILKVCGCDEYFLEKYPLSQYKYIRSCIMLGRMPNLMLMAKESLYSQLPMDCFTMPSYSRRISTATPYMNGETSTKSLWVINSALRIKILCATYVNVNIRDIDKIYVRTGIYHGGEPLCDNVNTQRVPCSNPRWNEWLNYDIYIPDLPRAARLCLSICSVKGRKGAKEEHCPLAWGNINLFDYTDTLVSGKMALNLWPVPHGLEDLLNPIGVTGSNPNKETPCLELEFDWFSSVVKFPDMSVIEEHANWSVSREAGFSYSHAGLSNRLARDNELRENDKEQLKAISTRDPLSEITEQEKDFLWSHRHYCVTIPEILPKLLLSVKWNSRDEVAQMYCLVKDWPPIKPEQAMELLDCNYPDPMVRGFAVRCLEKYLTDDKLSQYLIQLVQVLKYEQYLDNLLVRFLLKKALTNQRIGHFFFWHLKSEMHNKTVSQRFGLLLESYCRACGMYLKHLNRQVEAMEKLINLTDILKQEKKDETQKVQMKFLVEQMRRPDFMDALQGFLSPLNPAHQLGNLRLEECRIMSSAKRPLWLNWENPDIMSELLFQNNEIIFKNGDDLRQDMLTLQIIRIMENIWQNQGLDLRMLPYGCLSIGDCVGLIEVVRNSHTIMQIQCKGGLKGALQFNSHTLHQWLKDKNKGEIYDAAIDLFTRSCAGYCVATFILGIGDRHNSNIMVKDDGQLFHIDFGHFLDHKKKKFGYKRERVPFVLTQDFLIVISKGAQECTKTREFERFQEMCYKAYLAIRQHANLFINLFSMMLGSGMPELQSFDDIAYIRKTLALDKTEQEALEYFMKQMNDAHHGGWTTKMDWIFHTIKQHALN
Sequence (P27986 whole entry partner): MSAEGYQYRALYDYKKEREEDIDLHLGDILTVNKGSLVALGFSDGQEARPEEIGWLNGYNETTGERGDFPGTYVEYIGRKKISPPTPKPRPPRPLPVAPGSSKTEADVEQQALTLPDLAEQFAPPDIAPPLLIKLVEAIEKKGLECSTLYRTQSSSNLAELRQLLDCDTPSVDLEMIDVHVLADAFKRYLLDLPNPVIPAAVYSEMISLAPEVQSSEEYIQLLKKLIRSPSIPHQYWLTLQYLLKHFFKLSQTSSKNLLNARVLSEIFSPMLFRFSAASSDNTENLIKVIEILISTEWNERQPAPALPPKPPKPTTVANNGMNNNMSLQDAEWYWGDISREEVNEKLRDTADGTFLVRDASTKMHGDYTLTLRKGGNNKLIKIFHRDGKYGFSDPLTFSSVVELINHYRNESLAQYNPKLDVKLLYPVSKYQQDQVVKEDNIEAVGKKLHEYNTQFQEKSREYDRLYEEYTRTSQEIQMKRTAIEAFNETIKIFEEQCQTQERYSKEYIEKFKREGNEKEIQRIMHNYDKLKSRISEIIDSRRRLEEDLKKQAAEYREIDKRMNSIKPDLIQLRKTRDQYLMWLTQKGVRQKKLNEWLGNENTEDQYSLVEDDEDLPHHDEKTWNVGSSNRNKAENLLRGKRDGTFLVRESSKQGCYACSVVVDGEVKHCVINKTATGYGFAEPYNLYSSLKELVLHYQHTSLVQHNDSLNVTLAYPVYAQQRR
Assay: PI3K TR-FRET assay (Transcreener ADP2)
Assay type: biochemical
Details: 1 uM compound; read-out: PI3K % Inhib@1 uM
endpoint: inhibition at 1 µM

{"compound": "CNC(=O)Nc1ncc(-c2nc(NC)nc(N3CCOC[C@@H]3C)n2)s1", "inhibition at 1 µM": "< 50%"}
{"compound": "C[C@H]1CN(c2nc(Oc3ccc(C(=O)N(C)C)cc3F)nc(-c3ccc4[nH]ncc4c3)n2)[C@@H](C)CO1", "inhibition at 1 µM": "< 50%"}

Please look up its inhibition at 1 µM: CN(C)C(=O)c1ccc(Oc2nc(-c3ccc4[nH]ncc4c3)nc(N3C4CCC3COC4)n2)c(F)c1 < 50%

Can you handle CN(C)C(=O)C1CCC(Oc2nc(-c3ccc4[nH]ccc4c3)nc(N3CCO[C@@H]4CCC[C@H]43)n2)CC1 (stereo partly shown) next? < 50%

Continue with C[C@@H]1CN(c2nc(Oc3ccc(C(=O)N(C)C)cc3)nc(-c3cnc(N)s3)n2)CCO1 > 50%

// query: C[C@H]1CN(c2nc(Oc3ccc(C(=O)N(C)C)cc3)nc(-c3cnc(N)s3)n2)[C@@H](C)CO1 > 50%

Try this compound next: C[C@@H]1COCCN1c1nc(Oc2ccc(C(=O)N(C)C)cc2F)nc(-c2cnc(N)s2)n1 < 50%

* * *

Target: Recombinant mTOR (FRAP1) (Homo sapiens)
Construct: purchased Invitrogen
Assay: mTOR in vitro kinase assay (TR-FRET, phosphorylation of GFP-4E-BP1)
Format: biochemical
Details: 1 uM compound; read-out: mTOR % Inhib@1 uM
endpoint: inhibition at 1 µM

# returns recorded inhibition at 1 µM (system: Recombinant mTOR (FRAP1) (Homo sapiens)) for C[C@@H]1CN(c2nc(Oc3ccc(C(=O)N(C)C)cc3)nc(-c3cnc(N)s3)n2)[C@@H](C)CO1 > 50%

Let us now turn to CN(C)C(=O)c1ccc(Nc2nc(-c3cnc(N)s3)nc(N3CCOCC3)n2)cc1 < 50%

What do we get for CN(C)C(=O)c1ccc(Oc2nc(-c3cnc(N)s3)nc(N3CCSCC3)n2)cc1 ? > 50%

Now the same for CN(C)C(=O)[C@H]1CC[C@H](Oc2nc(-c3ccc(N)nc3)nc(N3CCOCC3)n2)CC1 > 50%

Entry CC1COCCN1c1nc(Oc2ccc(C(=O)N(C)C)cc2)nc(-c2cnc(N)s2)n1 (stereo not drawn) please < 50%

Next compound up: CN(C)C(=O)c1ccc(Oc2nc(-c3ccc(N)nc3)nc(N3CCCOCC3)n2)cc1 < 50%

Please do the same for CNc1ncc(-c2nc(Oc3ccc(C(=O)N(C)C)cc3)nc(N3CCOCC3)n2)s1 as well. > 50%

// same read-out, input: C[C@H]1CN(c2nc(Oc3ccc(C(=O)N(C)C)cc3)nc(-c3cnc(N)s3)n2)CCO1 > 50%

Queued: CN(C)C(=O)c1ccc(Oc2nc(-c3cnc(N)cc3C(F)(F)F)nc(N3CCOCC3)n2)cc1 > 50%

Queued: CNC(=O)c1ccc(Oc2nc(-c3cnc(N)s3)nc(N3CCOCC3)n2)cc1 < 50%

What do you get for C[C@H]1COCCN1c1nc(Oc2ccc(C(=O)N(C)C)cc2)nc(C2=CC=C(N)N(O)C2)n1 ? < 50%

// repeat for C[C@H]1COCCN1c1nc(Oc2ccc(C(=O)N(C)C)cc2)nc(-c2cnc(N)s2)n1 and report > 50%

Let us now turn to CS(=O)(=O)N1CCC(COc2nc(-c3ccc(N)nc3)nc(N3CCOCC3)n2)CC1 < 50%

Also, NC(=O)c1ccc(Oc2nc(-c3cnc(N)s3)nc(N3CCOCC3)n2)cc1 please. < 50%

Try this compound too: CN(C)C(=O)c1ccc(Oc2nc(-c3cnc(N)s3)nc(N3CCNC(=O)C3)n2)cc1 < 50%

Next record, please: C[C@H]1COCCN1c1nc(O[C@H]2CC[C@H](C(=O)N(C)C)CC2)nc(-c2cnc(N)s2)n1 > 50%

* * *

Target: PI3 Kinase alpha (p110 alpha/p85 alpha) (Homo sapiens)
Assay: PI3K TR-FRET assay (Transcreener ADP2)
Details: PI3K alpha, 1 μM ATP, 50 μM PIP2
pIC50: −log10 of the molar value.
Measured pIC50, listed per entry for reference.

Past entries and their recorded results:
{"chem-smiles": "CN(C)C(=O)c1cccc(Nc2nc(-c3cnc(N)s3)nc(N3CCOCC3)n2)c1", "target-entity": "PI3 Kinase alpha (p110 alpha/p85 alpha) (Homo sapiens)", "pIC50": "> 6.00"}
{"chem-smiles": "CN(C)C(=O)c1cccc(Oc2nc(-c3ccc(N)nc3)nc(N3CCOCC3)n2)c1", "target-entity": "PI3 Kinase alpha (p110 alpha/p85 alpha) (Homo sapiens)", "pIC50": "> 6.00"}
{"chem-smiles": "C[C@@H]1COCCN1c1nc(Oc2ccc(C(=O)N(C)C)cc2)nc(-c2cnc(N)s2)n1", "target-entity": "PI3 Kinase alpha (p110 alpha/p85 alpha) (Homo sapiens)", "pIC50": "< 6.00"}
{"chem-smiles": "Nc1ncc(-c2nc(N3CCOCC3)nc(N3CCNC(=O)CC3)n2)s1", "target-entity": "PI3 Kinase alpha (p110 alpha/p85 alpha) (Homo sapiens)", "pIC50": "> 6.00"}

Please provide the recorded pIC50 for C[C@@H]1CN(c2nc(Oc3ccc(C(=O)N(C)C)cc3F)nc(-c3cnc4[nH]ccc4c3)n2)[C@@H](C)CO1 , tested on PI3 Kinase alpha (p110 alpha/p85 alpha) (Homo sapiens). < 6.00

* * *

# inhibition at 1 µM per entry
Target: Recombinant mTOR (FRAP1) (Homo sapiens, UniProt P42345)
Construct: purchased Invitrogen
Sequence (P42345 1360-2549 limits assumed): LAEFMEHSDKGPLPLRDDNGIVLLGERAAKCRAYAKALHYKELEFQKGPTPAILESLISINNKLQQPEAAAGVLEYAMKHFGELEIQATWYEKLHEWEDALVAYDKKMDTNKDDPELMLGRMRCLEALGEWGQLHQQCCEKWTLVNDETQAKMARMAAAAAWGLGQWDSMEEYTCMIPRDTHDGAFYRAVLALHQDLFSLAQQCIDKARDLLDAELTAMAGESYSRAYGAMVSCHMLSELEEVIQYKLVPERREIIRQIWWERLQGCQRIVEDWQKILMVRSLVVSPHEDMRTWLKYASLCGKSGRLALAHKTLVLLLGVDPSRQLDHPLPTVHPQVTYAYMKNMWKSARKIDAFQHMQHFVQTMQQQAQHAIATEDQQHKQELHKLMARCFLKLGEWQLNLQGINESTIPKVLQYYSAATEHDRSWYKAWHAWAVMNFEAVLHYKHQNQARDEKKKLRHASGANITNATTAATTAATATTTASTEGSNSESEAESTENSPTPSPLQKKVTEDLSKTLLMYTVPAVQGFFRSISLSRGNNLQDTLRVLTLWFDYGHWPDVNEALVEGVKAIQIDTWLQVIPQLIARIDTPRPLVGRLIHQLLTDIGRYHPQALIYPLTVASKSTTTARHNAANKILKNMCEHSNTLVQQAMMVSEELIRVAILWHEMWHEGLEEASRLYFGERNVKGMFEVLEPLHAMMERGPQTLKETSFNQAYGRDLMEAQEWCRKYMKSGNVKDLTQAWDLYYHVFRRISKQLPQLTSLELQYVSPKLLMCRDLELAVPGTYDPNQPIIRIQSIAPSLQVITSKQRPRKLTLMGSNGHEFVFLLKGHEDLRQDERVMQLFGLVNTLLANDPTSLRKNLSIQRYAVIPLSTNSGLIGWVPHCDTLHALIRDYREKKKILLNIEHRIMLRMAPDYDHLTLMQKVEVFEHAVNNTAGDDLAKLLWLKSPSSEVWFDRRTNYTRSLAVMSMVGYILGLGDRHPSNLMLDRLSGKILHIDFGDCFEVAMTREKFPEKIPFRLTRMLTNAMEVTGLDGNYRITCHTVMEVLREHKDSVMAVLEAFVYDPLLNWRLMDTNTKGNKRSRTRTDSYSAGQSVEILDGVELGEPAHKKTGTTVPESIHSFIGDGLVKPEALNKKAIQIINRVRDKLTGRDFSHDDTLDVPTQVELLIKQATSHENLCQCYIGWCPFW
Experiment: mTOR in vitro kinase assay (TR-FRET, phosphorylation of GFP-4E-BP1)
Format: biochemical
Details: 1 uM compound; read-out: mTOR % Inhib@1 uM

{"compound": "C[C@H]1COCCN1c1nc(OC2CCN(C(=O)N(C)C)CC2)nc(-c2cnc(N)s2)n1 [Compound 10137]", "inhibition at 1 µM": "> 50%"}

Shifting focus to the compound that follows.
Return reported inhibition at 1 µM; argument: Nc1ccc(-c2nc(Oc3ccc4c(c3)CCC(=O)N4)nc(N3CCOCC3)n2)cn1 [Compound 10182] > 50%

* * *

Examples of compounds with documented inhibition at 1 µM follow.
Target: Recombinant mTOR (FRAP1) (Homo sapiens)
Construct: purchased Invitrogen
Test: mTOR in vitro kinase assay (TR-FRET, phosphorylation of GFP-4E-BP1)
Type: biochemical
Conditions: 1 uM compound; read-out: mTOR % Inhib@1 uM

{"compound": "CN(C)C(=O)c1ccc(Oc2nc(-c3cnc(N)s3)nc(N3CCOc4ccccc43)n2)cc1", "inhibition at 1 µM": "> 50%"}
{"compound": "CN(C)C(=O)c1ccc(Oc2nc(-c3cnc(N)s3)nc(N3C[C@H]4C[C@@H](C3)O4)n2)cc1", "inhibition at 1 µM": "< 50%"}
{"compound": "CC(C(=O)N(C)C)c1ccc(Oc2nc(-c3cnc(N)s3)nc(N3CCOCC3)n2)cc1 (stereo not drawn)", "inhibition at 1 µM": "> 50%"}
{"compound": "C[C@@H]1CN(c2nc(Oc3ccc(C(=O)N(C)C)cc3)nc(-c3cnc(N)s3)n2)C[C@H](C)O1", "inhibition at 1 µM": "> 50%"}
{"compound": "CN(C)C(=O)c1ccc(Oc2nc(-c3cnc(N)s3)nc(N3CCNC(=O)CC3)n2)cc1", "inhibition at 1 µM": "< 50%"}

Item CN(C)C(=O)c1ccc(Oc2nc(-c3cnc(N)s3)nc(N3CCOCC3)n2)c(F)c1 with Recombinant mTOR (FRAP1) (Homo sapiens) - inhibition at 1 µM? > 50%
